Parameter ACTIVITY (CARNOSINE UNIT) 3 h: see the listing below.
assay: Carbonyl-quenching activity towards HNE in vitro (residual HNE by reverse-phase chromatography); assay type: biochemical; details: 3 h incubation; HNE 50 μM, compound 1 mM, phosphate buffer 10 mM, pH 7.4, 37° C.
Write it as a number; the unit CARNOSINE UNIT goes unstated.

compound	numericResult
CC(C)(CN)C(=O)N[C@H](CO)Cc1c[nH]cn1 [FLM-04-OLO]	2.00
NCC1(C(=O)N[C@@H](Cc2c[nH]cn2)C(=O)O)CCC1 [FLM-10-ACI]	1.11
NCC1(C(=O)N[C@@H](Cc2c[nH]cn2)C(=O)O)CCCC1 [FLM-11-ACI]	1.31
Cn1cncc1C[C@@H](CO)NC(=O)C(C)(C)CN [FLM-12-OLO]	1.64
NCC1(C(=O)N[C@@H](Cc2c[nH]cn2)C(=O)O)CCCCC1 [FLM-14-ACI]	1.36

Quickly give me recorded ACTIVITY (CARNOSINE UNIT) 3 h for NCCC(=O)N[C@@H](Cc1cnc[nH]1)C(=O)O [CARNOSINE, L-carnosine, reference compound]
1.00

Quickly give me recorded ACTIVITY (CARNOSINE UNIT) 3 h for NCC1(C(=O)N[C@H](CO)Cc2c[nH]cn2)CCCC1 [FLM-11-OLO]
2.06

Quickly give me recorded ACTIVITY (CARNOSINE UNIT) 3 h for CC(C)(CCN)C(=O)N[C@H](CO)Cc1c[nH]cn1 [FLM-13-OLO]
0.54

Quickly give me recorded ACTIVITY (CARNOSINE UNIT) 3 h for NCC1(C(=O)N[C@H](CO)Cc2c[nH]cn2)CC1 [FLM-09-OLO]
1.45
